B1: Subtilisin-chymotrypsin inhibitor-2A, P01053 (parent)
chain: MSSVEKKPEGVNTGAGDRHNLKTEWPELVGKSVEEAKKVILQDKPEAQIIVLPVGTIVTMEYRIDRVRLFVDKLDNIAQVPRVG

# Variants of: B1
# Run parameters: Hordeum vulgare; pH 6.25; 25 °C; GdnHCl; Fluorescence; MES 50 mM; reversible: yes; structure 2CI2; whole UniProt chain shown
Listed here are variants together with their documented ddG of mutation (higher = less stable).
# value in kcal/mol; strip the unit string

[
  {
    "Mutation code": "T56S",
    "ddG of mutation (higher = less stable), kcal/mol": 0.98
  },
  {
    "Mutation code": "A36G",
    "ddG of mutation (higher = less stable), kcal/mol": 1.41
  },
  {
    "Mutation code": "K44A",
    "ddG of mutation (higher = less stable), kcal/mol": 1.85
  }
]

The reported value for `T56A` in terms of ddG of mutation (higher = less stable) is 1.42

The reported value for L52V F70A in terms of ddG of mutation (higher = less stable) is 3.26

The reported value for `E34D` in terms of ddG of mutation (higher = less stable) is 0.77

The reported value for `E35Q` in terms of ddG of mutation (higher = less stable) is 0.68

The reported value for `S32G` in terms of ddG of mutation (higher = less stable) is 0.06
